Source listed as PubChem BioAssay (NCI).

Test system: OVCAR-5 ovarian
Experiment: NCI-60 one-dose screen, 48 h
Conditions: 10 µM unless noted
About 83,000 compounds went through this panel and 20% of them were active in at least one assay; those are over-represented in the sample as a whole. The source made the active and inactive calls. The calls were made as follows: active = growth percent below 10; inactive = the rest.
Your reply should match one of these outcome classes. active, inactive

- molecule: "CC([C@H]1CCC2C3CCC4C(=O)C(NC=O)=CC[C@]4(C)C3CC[C@@]21C)N(C)C (some centres undefined)"
  classLabel: "inactive"
- molecule: "Cc1ccc(/C=C(\\C#N)n2nc3cccc(F)c3n2)cc1"
  classLabel: "inactive"
- molecule: "CCOC(=O)Nc1ccc(-c2nc(-c3cccc(OC)c3)c(-c3ccnc(Br)c3)[nH]2)cc1"
  classLabel: "inactive"
- molecule: "O=C(Cc1ccc2c(c1)OCCO2)Nc1nc2ccc(F)cc2s1"
  classLabel: "inactive"
- molecule: "CCCCCCn1c(-c2ccc(C(=O)O/N=C(\\N)c3ccc4ccccc4c3)cc2)nc(-c2ccccc2)c1-c1ccccc1"
  classLabel: "inactive"

INPUT: Record lookup: outcome of this test for NCCOc1ncccc1/C=C1\C2C=CC=CC2C2C=CC(F)=CC12 (centres undefined) ?
OUTPUT: inactive

INPUT: Record lookup: outcome of this test for Cc1nc2ccccc2c(/C=C/c2ccc(Cl)cc2)c1C(=O)/C=C/c1ccc(C(F)(F)F)cc1 ?
OUTPUT: active

INPUT: Record lookup: outcome of this test for Cc1[nH]c(C(=O)Nc2ccc(C(=O)N3CCNCC3)cc2OC(C)C)c(Cl)c1Cl ?
OUTPUT: inactive

INPUT: Record lookup: outcome of this test for O=C(N=c1oc2ccccc2cc1-c1cc2ccccc2[nH]1)Nc1ccc(Cl)cc1 ?
OUTPUT: inactive

INPUT: Record lookup: outcome of this test for CCCSc1nc2ccc(C)cc2cc1/C=[N+](\[O-])c1ccccc1 ?
OUTPUT: inactive

INPUT: Record lookup: outcome of this test for CC1=C(C)C(=O)C(Nc2cccc(C(=O)OC(C)(C)C)c2)=C(Br)C1=O ?
OUTPUT: inactive

INPUT: Record lookup: outcome of this test for O=C1NC(=O)C(c2ccccc2)(c2ccccc2)N1Cc1cn(-c2c3ccccc3nc3ccccc23)nn1 ?
OUTPUT: inactive

INPUT: Record lookup: outcome of this test for O=C1c2cccc3cccc(c23)C(=O)N1Nc1nc(NC2CCCCC2)nc(N2CCOCC2)n1 ?
OUTPUT: inactive

INPUT: Record lookup: outcome of this test for O=c1ccc(N=Nc2ccccc2)ccc1Cl ?
OUTPUT: inactive

INPUT: Record lookup: outcome of this test for COc1cc2cc(Oc3ccc(NC(=O)Nc4ccc(F)c(C(F)(F)F)c4)cc3)c(C)nc2cc1OCCN1CCOCC1 ?
OUTPUT: inactive

INPUT: Record lookup: outcome of this test for O=c1ccn(Cc2cn(-c3c4ccccc4nc4ccccc34)nn2)c(=O)[nH]1 ?
OUTPUT: inactive

INPUT: Record lookup: outcome of this test for O=c1c2cc(F)cc(Cl)c2sc2c(NCCCNCCO)nc3ccccc3c12 ?
OUTPUT: inactive

INPUT: Record lookup: outcome of this test for COc1ccc(/C=C/c2c(C(=O)/C=C/c3ccc(C(F)(F)F)cc3)c(C)nc3ccccc23)cc1 ?
OUTPUT: active

INPUT: Record lookup: outcome of this test for CN1CCN(Cc2ccc(NC(=O)c3ccc(C(C)(C)C)c(C#Cc4cnc5cccnn45)c3)cc2C(F)(F)F)CC1 ?
OUTPUT: active

INPUT: Record lookup: outcome of this test for Brc1c[n+](Cc2ccc3ccccc3c2)cn1Cc1ccc2ccccc2c1 ?
OUTPUT: inactive

INPUT: Record lookup: outcome of this test for NCCCNc1nc2ccccc2c2c(=O)c3cc(F)cc(Cl)c3sc12 ?
OUTPUT: inactive

INPUT: Record lookup: outcome of this test for COc1ccc(-c2csc(NC(=O)N3CCN(c4cc5c(cc4F)c(=O)c(C(=O)O)cn5C4CC4)CC3)n2)cc1 ?
OUTPUT: inactive

INPUT: Record lookup: outcome of this test for COc1ccc(-c2cc(-c3ccc(Cl)cc3)c(C#N)c(=O)n2CCCCCC(=O)Nc2ccccc2N)cc1 ?
OUTPUT: inactive

INPUT: Record lookup: outcome of this test for COc1ccc(-c2nc(NCCO)[nH]c(=O)c2C#N)cc1 ?
OUTPUT: inactive

INPUT: Record lookup: outcome of this test for COc1cccc2nc3n(c12)C(c1c(F)cccc1F)SC3 (centres undefined) ?
OUTPUT: inactive
